Tested on: mouse short heterodimer partner-1 mRNA
PROTOCOL TEXT: Inhibition of mouse short heterodimer partner-1 mRNA levels in primary hepatocytes, quantitative real-time PCR
Assay type: cell-based
Set-up: concentration or dose not given beside the values
TEST CONTEXT: averages from two experiments
Strand notation (5' to 3'): a small letter for the sugar, then the base; units joined by * are phosphorothioate-linked, units joined directly phosphodiester-linked; [ ] holds rarer units or linkages, { } end groups; capitals alone tell only the bases. e = 2'-O-(2-methoxyethyl) (MOE); [5mC] = 5-methylcytosine; d = 2'-deoxy (DNA)
QUANTITY MEASURED: % INHIB (inhibition of mouse short heterodimer partner-1 mRNA levels) (%)

INSERT INTO measurements (substance, number) VALUES
  ('148287 (antisense eG*eT*eT*e[5mC]*eT*dG*dT*dA*d[5mC]*dA*dA*dA*dG*dT*d[5mC]*eA*eG*eG*eA*eG) [compound 148287]', 74);

###

Test system: mouse short heterodimer partner-1 mRNA
PROTOCOL TEXT: Inhibition of mouse short heterodimer partner-1 mRNA levels in primary hepatocytes, quantitative real-time PCR
Assay type: cell-based
Design: concentration or dose not given beside the values
TEST CONTEXT: averages from two experiments
Strand notation (5' to 3'): a small letter for the sugar, then the base; units joined by * are phosphorothioate-linked, units joined directly phosphodiester-linked; [ ] holds rarer units or linkages, { } end groups; capitals alone tell only the bases. e = 2'-O-(2-methoxyethyl) (MOE); [5mC] = 5-methylcytosine; d = 2'-deoxy (DNA)
# % INHIB (inhibition of mouse short heterodimer partner-1 mRNA levels) values compiled below
QUANTITY MEASURED: % INHIB (inhibition of mouse short heterodimer partner-1 mRNA levels)

INSERT INTO measurements (substance, result) VALUES
  ('148274 (antisense eG*eG*e[5mC]*eA*e[5mC]*d[5mC]*d[5mC]*dT*dG*dG*dG*dT*dA*d[5mC]*d[5mC]*eG*e[5mC]*eT*eG*e[5mC]) [compound 148274]', '22%'),
  ('148281 (antisense eA*eG*eA*eA*eG*dA*dG*dA*dT*d[5mC]*dT*dA*d[5mC]*d[5mC]*dA*eG*eA*eA*eG*eG) [compound 148281]', '48%'),
  ('148276 (antisense eA*eG*eA*eA*eA*dG*dA*d[5mC]*dT*d[5mC]*d[5mC]*dA*dG*dG*d[5mC]*eA*eG*e[5mC]*eG*e[5mC]) [compound 148276]', '56%');

These measurements were taken from patent US20030083484A1.
